# EXPERIMENTAL TARGET: Thrombopoietin receptor (Homo sapiens)
# Sequence (P40238 whole entry): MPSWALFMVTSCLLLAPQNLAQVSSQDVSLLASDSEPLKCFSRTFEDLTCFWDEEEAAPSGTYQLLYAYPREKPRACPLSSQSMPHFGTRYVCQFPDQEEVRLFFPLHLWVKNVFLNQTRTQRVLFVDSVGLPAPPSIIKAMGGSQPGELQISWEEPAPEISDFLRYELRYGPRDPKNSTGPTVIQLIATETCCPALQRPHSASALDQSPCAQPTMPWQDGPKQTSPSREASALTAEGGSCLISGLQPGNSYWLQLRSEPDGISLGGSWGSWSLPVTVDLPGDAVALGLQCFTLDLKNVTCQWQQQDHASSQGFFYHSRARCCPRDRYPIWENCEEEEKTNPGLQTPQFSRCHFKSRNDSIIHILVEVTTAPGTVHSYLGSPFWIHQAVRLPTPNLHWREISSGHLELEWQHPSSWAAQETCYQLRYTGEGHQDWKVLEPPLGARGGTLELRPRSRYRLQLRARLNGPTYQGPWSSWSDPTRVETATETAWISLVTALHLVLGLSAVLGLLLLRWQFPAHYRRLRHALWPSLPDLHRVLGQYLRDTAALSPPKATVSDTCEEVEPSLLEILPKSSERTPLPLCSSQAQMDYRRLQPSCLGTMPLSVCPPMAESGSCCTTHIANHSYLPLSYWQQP
# PROCEDURE DETAILS: Agonist activity at human thrombopoietin receptor expressed in mouse Ba/F3 cells by kinase activation based reporter gene assay
MEASURED ENDPOINT: EC50 (nM)

(P) CCCCc1ccc(-c2ccc3c(C)c(-c4ccc(C(=O)O)c(O)c4)[nH]c3c2F)cc1
(Q) CCCCc1ccc(-c2ccc3nc(-c4ccc(C(=O)O)cc4)[nH]c3c2)cc1
**Q:** For the pair P and Q , which member has the lower EC50 number? // output: label of the selected item
**A:** P
(P: 116 nM, Q: 1260 nM)

* * *

# EXPERIMENTAL TARGET: Thrombopoietin receptor (Homo sapiens)
# PROCEDURE DETAILS: Agonist activity at human thrombopoietin receptor expressed in mouse Ba/F3 cells in presence of 1 mM Zinc by kinase activation based reporter gene assay
# Format: functional, cell-based
# MEASUREMENT CONTEXT: BaF3
MEASURED ENDPOINT: EC50 (µM)

Recorded EC50, per entry:
SMILES DATA	MEASURED RESULT
CCCCc1ccc(-c2ccc3c4c([nH]c3c2F)-c2cc(N)c(C(=O)O)cc2C4)cc1	0.341
CCCCc1ccc(-c2ccc3c4c([nH]c3c2F)-c2ccc(NC(N)=O)cc2C4)cc1	0.124

(P) CCCCc1ccc(-c2ccc3c4c([nH]c3c2)-c2ccc(C(=O)O)cc2CCC4)cc1
(Q) CCCCc1ccc(-c2ccc3c4c([nH]c3c2F)-c2ccc(NC(=O)CO)cc2C4)cc1
(R) CCCCc1ccc(-c2ccc3c4c([nH]c3c2F)-c2ccc(NS(C)(=O)=O)cc2C4)cc1
**Q:** Let's sort these by EC50, smallest first. Go ahead? Hello, could you send the labels back in the order asked? Thank you.
**A:** Q, R, P
